Target: T1, biotinylated human recombinant IL-12Rβ2 (produced in-house) (human, UniProt Q99665 24-622, random biotinylated)
T1 construct: Soluble recombinant protein used for panning, ELISA and BLI; also called hIL-12RB2; hIL12RB2
T1 sequence: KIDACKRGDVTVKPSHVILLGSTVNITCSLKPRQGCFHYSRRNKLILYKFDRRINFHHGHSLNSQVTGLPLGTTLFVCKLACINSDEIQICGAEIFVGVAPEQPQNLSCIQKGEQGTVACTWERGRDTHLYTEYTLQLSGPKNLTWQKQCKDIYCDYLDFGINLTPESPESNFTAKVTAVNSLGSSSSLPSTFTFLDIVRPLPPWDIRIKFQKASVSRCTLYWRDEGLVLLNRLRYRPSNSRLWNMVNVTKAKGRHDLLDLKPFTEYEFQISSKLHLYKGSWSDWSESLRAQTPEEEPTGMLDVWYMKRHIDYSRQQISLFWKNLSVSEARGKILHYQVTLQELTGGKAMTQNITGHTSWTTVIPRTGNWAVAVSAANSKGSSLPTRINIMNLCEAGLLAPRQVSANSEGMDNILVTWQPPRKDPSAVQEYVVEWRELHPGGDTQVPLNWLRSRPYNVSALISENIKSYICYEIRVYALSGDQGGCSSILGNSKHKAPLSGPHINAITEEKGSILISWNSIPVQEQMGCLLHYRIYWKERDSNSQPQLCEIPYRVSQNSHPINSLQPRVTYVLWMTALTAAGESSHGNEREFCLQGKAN
Test: BLI (Octet Red), periplasmic extract on biotinylated human IL-12Rβ2 on streptavidin tips, 1:1 model
# koff per record follows
value.type: koff (s⁻¹)

>  <binder>
anti-IL-12Rβ2 VHH clone 3CAHS102 (clone ID 20399) (VHH, Tested as periplasmic extract; not shown: C-terminal HA tag) VHH: QVQLQESGGGLVQPGGSLRLSCAASGSILRINLMGWYRQVPGKQRELVAEMSTGGSTTYVDSVEGRFTISRDNAKNTVYLQMNSLKPEDTAVYYCNAKAWQLGRLENDDWGQGTQVTVSS

>  <numeric.readout>
0.00267

$$$$
>  <binder>
anti-IL-12Rβ2 VHH clone 3CRHS128 (clone ID 20432) (VHH, Tested as periplasmic extract; not shown: C-terminal HA tag) VHH: QVQLQESGGGLVQPGGSLRLSCAASGFTFSTSGMHWFRQAPGKGLEWVSSIGATVDNSYYASSVKGRFTISRDNAKNTLYLLMNSLKSEDTAVYYCSKDPTGSSRGQGTQVTVSS

>  <numeric.readout>
0.00274

$$$$
>  <binder>
anti-IL-12Rβ2 VHH clone 3CRHS9 (clone ID 20415) (VHH, Tested as periplasmic extract; also called 3CRMS9; not shown: C-terminal HA tag) VHH: QVQLQESGGGLVQPGGSLRLSCTASGSIVSIYNMDWYRQAPGNEREWVASITSSGDPYYDGSAKGRFTISRDNAKMTVYLQMNSLKPEDTAVYYCKVPTEKGNYWGQGTQVTVSS

>  <numeric.readout>
0.0034

$$$$
>  <binder>
anti-IL-12Rβ2 VHH clone 3CRHM14 (clone ID 21053) (VHH, Tested as periplasmic extract; not shown: C-terminal HA tag) VHH: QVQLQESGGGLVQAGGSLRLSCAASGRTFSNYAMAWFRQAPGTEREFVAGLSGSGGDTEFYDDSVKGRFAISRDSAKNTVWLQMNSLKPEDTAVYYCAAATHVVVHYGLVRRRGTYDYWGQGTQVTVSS

>  <numeric.readout>
0.00532

$$$$
